The reader will find reported kinase still bound, per cent of control values listed item by item below.
targetOrSystem: STK10 (human)
test: KINOMEscan competition binding
studyConditions: compound 10.0 µM

Example cases with answers are listed next.
querySmiles	kinase still bound, per cent of control
COc1cc(N2CCN(C)CC2)ccc1Nc1nc(N)c(C(=O)c2c(Cl)cccc2Cl)s1	40%
C=CC(=O)Nc1cccc(Nc2nc(N[C@H]3CC[C@H](N(C)C)CC3)nc3c2ncn3C(C)C)c1	72%
O=C1Nc2ccc(I)cc2/C1=C/c1cc(Br)c(O)c(Br)c1	100%
COc1cc(C(=O)NC2CCN(C)CC2)ccc1Nc1ncc2c(n1)N(C1CCCC1)CCC(=O)N2C(C)C	100%
C[C@@H](Oc1cc(-n2cnc3ccc(CN4CCN(C)CC4)cc32)sc1C(N)=O)c1ccccc1C(F)(F)F	0%

Query kinase still bound, per cent of control on STK10 (human) for CCCS(=O)(=O)Nc1ccc(F)c(C(=O)c2c[nH]c3ncc(-c4ccc(Cl)cc4)cc23)c1F 16%

Query kinase still bound, per cent of control on STK10 (human) for CCN1CCN(Cc2ccc(Nc3ncc4c(n3)N(C)c3ccccc3C(=O)N4C)cc2C(F)(F)F)CC1 28%

Query kinase still bound, per cent of control on STK10 (human) for Cc1ccc(NC(=O)c2cccc(C(C)(C)C#N)c2)cc1Nc1ccc2ncn(C)c(=O)c2c1 0.1%

====

targetOrSystem: UniProt Q52WX2
Sequence (Q52WX2 whole entry, looked up): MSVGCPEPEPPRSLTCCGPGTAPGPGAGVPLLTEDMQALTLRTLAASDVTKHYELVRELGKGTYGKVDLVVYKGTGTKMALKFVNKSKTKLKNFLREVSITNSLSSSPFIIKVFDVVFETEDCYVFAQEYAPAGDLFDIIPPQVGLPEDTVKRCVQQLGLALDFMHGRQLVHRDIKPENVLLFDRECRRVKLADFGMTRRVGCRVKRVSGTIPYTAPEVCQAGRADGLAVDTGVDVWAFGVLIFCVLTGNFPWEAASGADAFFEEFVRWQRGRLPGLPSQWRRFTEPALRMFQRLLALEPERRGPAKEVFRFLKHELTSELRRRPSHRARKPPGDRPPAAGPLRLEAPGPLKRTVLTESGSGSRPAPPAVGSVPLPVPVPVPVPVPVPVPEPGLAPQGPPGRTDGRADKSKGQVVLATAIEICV
test: KINOMEscan competition binding
studyConditions: compound 10.0 µM
The reader will find reported kinase still bound, per cent of control values listed item by item below.
// units = %; emit number, no label

Example cases with answers are listed next.
querySmiles	targetOrSystem	scaleUnit	reportedMeasurement
Nc1ccc(-c2ccc3ncc4ccc(=O)n(-c5cccc(C(F)(F)F)c5)c4c3c2)cn1	UniProt Q52WX2	%	100
CCOc1cc2ncc(C#N)c(Nc3ccc(OCc4ccccn4)c(Cl)c3)c2cc1NC(=O)/C=C/CN(C)C	UniProt Q52WX2	%	100
C[C@@H](Oc1cc(-n2cnc3ccc(CN4CCN(C)CC4)cc32)sc1C(N)=O)c1ccccc1C(F)(F)F	UniProt Q52WX2	%	55

Please give the measured kinase still bound, per cent of control for this molecule: CCN1CCN(Cc2ccc(Nc3ncc4c(n3)N(C)c3ccccc3C(=O)N4C)cc2C(F)(F)F)CC1 6.9

Please give the measured kinase still bound, per cent of control for this molecule: Cn1c(=O)n(-c2ccc(C(C)(C)C#N)cc2)c2c3cc(-c4cnc5ccccc5c4)ccc3ncc21 100

Please give the measured kinase still bound, per cent of control for this molecule: N#Cc1c(NC(=O)c2cccc3ccccc23)sc2c1CCCC2 100

Please give the measured kinase still bound, per cent of control for this molecule: OCCCNc1cc(-c2ccnc(Nc3cccc(Cl)c3)n2)ccn1 100

====

targetOrSystem: UniProtKB O60285
Sequence (O60285 whole entry, looked up): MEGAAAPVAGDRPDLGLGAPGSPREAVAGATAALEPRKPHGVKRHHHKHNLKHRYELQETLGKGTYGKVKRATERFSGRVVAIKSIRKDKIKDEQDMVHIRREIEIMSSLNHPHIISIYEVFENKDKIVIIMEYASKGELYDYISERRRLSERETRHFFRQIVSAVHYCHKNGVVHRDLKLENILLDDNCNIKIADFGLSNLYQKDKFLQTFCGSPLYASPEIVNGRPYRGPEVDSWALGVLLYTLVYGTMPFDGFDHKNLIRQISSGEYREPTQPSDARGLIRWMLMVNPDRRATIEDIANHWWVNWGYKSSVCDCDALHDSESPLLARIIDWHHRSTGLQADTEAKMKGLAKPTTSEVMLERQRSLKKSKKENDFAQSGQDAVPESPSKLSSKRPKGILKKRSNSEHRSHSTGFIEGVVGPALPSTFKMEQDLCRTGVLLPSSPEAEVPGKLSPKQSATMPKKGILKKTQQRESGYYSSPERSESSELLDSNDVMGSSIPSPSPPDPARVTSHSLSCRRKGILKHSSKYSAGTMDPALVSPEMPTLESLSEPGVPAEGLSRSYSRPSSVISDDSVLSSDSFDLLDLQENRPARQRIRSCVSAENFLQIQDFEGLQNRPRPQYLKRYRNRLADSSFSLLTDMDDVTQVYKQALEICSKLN
test: KINOMEscan competition binding
studyConditions: compound 10.0 µM
property: kinase still bound, per cent of control
Entry format: amount then unit.

compound	targetOrSystem	kinase still bound, per cent of control
CCN1CCN(Cc2ccc(Nc3ncc4c(n3)N(C)c3ccccc3C(=O)N4C)cc2C(F)(F)F)CC1	UniProtKB O60285	3%
C[C@@H](Oc1cc(-n2cnc3ccc(CN4CCN(C)CC4)cc32)sc1C(N)=O)c1ccccc1C(F)(F)F	UniProtKB O60285	17%
COc1cc(C(=O)NC2CCN(C)CC2)ccc1Nc1ncc2c(n1)N(C1CCCC1)CCC(=O)N2C(C)C	UniProtKB O60285	100%
C=CC(=O)Nc1cc(NC(=O)c2ccc(C)c(NC(=O)c3ccno3)c2)cc(C(F)(F)F)c1	UniProtKB O60285	100%

Please give the measured kinase still bound, per cent of control for this compound: C=CC(=O)Nc1cccc(Nc2nc(N[C@H]3CC[C@H](N(C)C)CC3)nc3c2ncn3C(C)C)c1 93%

Please give the measured kinase still bound, per cent of control for this compound: CN(C)C/C=C/C(=O)Nc1cccc(Nc2ncc3c(n2)N(C)c2ccccc2C(=O)N3C)c1 0.85%

Please give the measured kinase still bound, per cent of control for this compound: CCOc1cc2ncc(C#N)c(Nc3ccc(OCc4ccccn4)c(Cl)c3)c2cc1NC(=O)/C=C/CN(C)C 61%

Please give the measured kinase still bound, per cent of control for this compound: CCCS(=O)(=O)Nc1ccc(F)c(C(=O)c2c[nH]c3ncc(-c4ccc(Cl)cc4)cc23)c1F 100%

Please give the measured kinase still bound, per cent of control for this compound: CCC(=O)N1CCN(c2ccc(-n3c(=O)ccc4cnc5ccc(-c6cnc7ccccc7c6)cc5c43)cc2C(F)(F)F)CC1 100%

Please give the measured kinase still bound, per cent of control for this compound: COc1cc(N2CCN(C)CC2)ccc1Nc1nc(N)c(C(=O)c2c(Cl)cccc2Cl)s1 100%

Please give the measured kinase still bound, per cent of control for this compound: O=C(O)c1ccc(Nc2ncc3c(n2)-c2ccc(Cl)cc2C(c2c(F)cccc2F)=NC3)cc1 67%
